Below, each entry is listed alongside its reported z-score.
- measurement-notes: Components of the Cytosolic LPS Sensing Pathway: Gene Identification via Genome-wide siRNA Screen
- experimental-context: RAW264.7 macrophages, IL-1a HTRF, actives lie on both sides, screened at 100 nM (by protocol), cells primed 5 h with Pam3CSK4 first
Hit rate of the full screen: of about 53,000 sequences, about 3,700 (7%) were called active. This excerpt belongs to a sample that is enriched for actives.
# output: bare number, no unit

residue-string	z-score
CGAGCAUGCAUUCAAAGGATT against Lrrc3b	1.33
GGCGACAGCUAAGUGUUGGTT against Gprc5a	-0.0528
GCUGAAUAGCCUCUAUCUATT against Rasgrp4	0.261
GGAACUGGAGAUGCACAGCTT against Mtcl1	1.2
GGUGGUCUACCAGCAUUUGTT against Pde4dip	2.16

So for CCUAUUAAUAUGGAAAGUGTT against Arcn1 , the logged z-score turned out to be 0.675

So for GGAAGAGUUGGAGAAAAUUTT against Tex46 , the logged z-score turned out to be 2

So for GGAUACUGGCAUGAAAUUGTT against Slc22a2 , the logged z-score turned out to be -0.888

----------
- measurement-notes: Components of the Cytosolic LPS Sensing Pathway: Gene Identification via Genome-wide siRNA Screen
- experimental-context: RAW264.7 macrophages, IL-1a HTRF, actives lie on both sides, screened at 100 nM (by protocol), cells primed 5 h with Pam3CSK4 first
Out of some 53,000 sequences screened, about 3,700 (7%) were called active. Many of the other results were omitted from the sample, so actives are more common in it than they were.
Below, each entry is listed alongside its reported z-score.
# output: bare number, no unit

Sample answers from the record:
residue-string	measured
GGGAAACAAACAGAAGAACTT against Cfap65	-1.2
GGCUUCAGCAAAGACAAUGTT against Ache	-1.07
GGAAGAUACAAGUCUUUUUTT against Akap12	1.85

So for GGCCGUGAUGCUAGAGAACTT against Zfp661 , the logged z-score turned out to be 0.131

So for CCAGUGGAGUAAACUGUAATT against Ltbp1 , the logged z-score turned out to be 2.24

So for GGAAAUGACGACUACCAAGTT against Tspyl4 , the logged z-score turned out to be 2.74

So for CGAGAUGUGUGUUAAAGGATT against Utp23 , the logged z-score turned out to be 0.934

So for GGAAAAGUGGUGAACGACATT against Tm4sf4 , the logged z-score turned out to be 0.798

So for GCAGAAAGAAACGUAAAUGTT against Dhx57 , the logged z-score turned out to be 0.464

So for GGUGAAAUUGCUCAGAUAATT against Narf , the logged z-score turned out to be 0.387

----------
- measurement-notes: Components of the Cytosolic LPS Sensing Pathway: Gene Identification via Genome-wide siRNA Screen
- experimental-context: RAW264.7 macrophages, IL-1a HTRF, actives lie on both sides, screened at 100 nM (by protocol), cells primed 5 h with Pam3CSK4 first
In all, about 53,000 sequences went through this assay and about 3,700 (7%) were called active. The full list was thinned out, with actives kept by preference.
# z-score >= -0.05 gives TRUE, anything below gives FALSE

# count of solved cases: 5
residue-string	class-label
GGUCCAAUUAACCUAUCUUTT against Ppip5k2	FALSE
CGAACAAGCCAUGUUUACATT against Gvin1	TRUE
GGAGUGAAGGCCAGCUGAATT against Son	FALSE
GGUGCUGAAUUUGAUCAAGTT against Rpa2	TRUE
GGAAAAUUGGCCAAAAUAATT against Pdcl	TRUE

Hello, I need to know if GCAAGCCAACUGACCAUCATT against Nudt2 has measured z-score not below -0.05. Thanks!
TRUE

Hello, I need to know if GGCUCUGCCAUUUUCCCUUTT against F12 has measured z-score not below -0.05. Thanks!
FALSE

Hello, I need to know if GCUCCUGAUCAAAUAAAGUTT against Ldhb has measured z-score not below -0.05. Thanks!
TRUE

----------
- measurement-notes: Components of the Cytosolic LPS Sensing Pathway: Gene Identification via Genome-wide siRNA Screen;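 further: robust z of the log signal after scaling to non-targeting control siRNA wells of the plate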
- experimental-context: RAW264.7 macrophages, IL-1a HTRF, actives lie on both sides, screened at 100 nM (by protocol), cells primed 5 h with Pam3CSK4 first
Among all 53,000 sequences or so, about 3,700 (7%) were called active. The sample as a whole holds a higher share of actives than the screen did.
readout-type: z-score
# output: bare number, no unit

Sample answers from the record:
residue-string	z-score
GGGAAUUUUGGAAGAGUCUTT against F630003A18Rik	-3.23
GGUUUAGGGUCAAGAUAUUTT against Ttf2	-1.39
CCUUCUAGUACAAAAGUUGTT against Jmjd1c	1.32
GGUAAUGUUCUCCUUUGAATT against Dok1	4.89
GCCUGGAAUCUCUUCAUGUTT against Pde3a	0.679

So for CCCUCUUUAUCGUCUGUGATT against Gpha2 , the logged z-score turned out to be -2.89

So for GGAAGAAUGUGGGUAAAGATT against Gimap9 , the logged z-score turned out to be -2.01

So for CCGAGCUAGAUCAGCUAUUTT against Mertk , the logged z-score turned out to be -1.45

So for GGCAUGGAAGGCUAAACAGTT against Slc25a17 , the logged z-score turned out to be -1.98

So for GGACUGACUGGCUUCAUUGTT against Atl2 , the logged z-score turned out to be -2.52

So for CCAGAAUGUAAACUUGGUCTT against Trpv6 , the logged z-score turned out to be 0.0508

----------
- measurement-notes: Components of the Cytosolic LPS Sensing Pathway: Gene Identification via Genome-wide siRNA Screen;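 further: robust z of the log signal after scaling to non-targeting control siRNA wells of the plate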
- experimental-context: RAW264.7 macrophages, IL-1a HTRF, actives lie on both sides, screened at 100 nM (by protocol), cells primed 5 h with Pam3CSK4 first
The whole screen tested about 53,000 sequences, of which about 3,700 (7%) were called active. This is one part of a sample in which actives are shown more often than they occur.
readout-type: z-score

Sample answers from the record:
residue-string	readout-type	measured
GGAGCAGGAGAAAAUUUUGTT against Olfr437	z-score	-0.0124 (inactive)
GCUGUCAGACUAAAGAUAUTT against Mmd	z-score	-0.733 (inactive)
GGACCUCCCACAGUGUUAUTT against Enpp2	z-score	-0.574 (inactive)
GCCCUGUACCUUUUAGCUUTT against Olfr704	z-score	-0.306 (inactive)

So for GGCUAGCAGGAUCAGCAUCTT against Rnf212 , the logged z-score turned out to be 0.617 (inactive)

So for CCAUAGGUAUCAUUGCAAGTT against Tas2r139 , the logged z-score turned out to be -2.16 (active)

----------
- measurement-notes: Components of the Cytosolic LPS Sensing Pathway: Gene Identification via Genome-wide siRNA Screen;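 further: robust z of the log signal after scaling to non-targeting control siRNA wells of the plate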
- experimental-context: RAW264.7 macrophages, IL-1a HTRF, actives lie on both sides, screened at 100 nM (by protocol), cells primed 5 h with Pam3CSK4 first
In all, about 53,000 sequences went through this assay and about 3,700 (7%) were called active. The full list was thinned out, with actives kept by preference.
# z-score >= 0.2 gives condition met, anything below gives condition not met

# count of solved cases: 2
residue-string	class-label
GCUGUGCAAGGUGAGGAAATT against Rps4l	condition met
GGUGAUAAUUAAUGUCUUGTT against Naip1	condition met

Hello, I need to know if GGACAUUUUUAUGCACAAUTT against Il1rl2 has measured z-score not below 0.2. Thanks!
condition met

Hello, I need to know if GGCAGACAACUUCUACCAATT against Crim1 has measured z-score not below 0.2. Thanks!
condition met

Hello, I need to know if GGAUGUCACUCUUGCAUUGTT against Olfr948 has measured z-score not below 0.2. Thanks!
condition met

Hello, I need to know if GGAUACAAAUCAGGUUCUCTT against Kansl2 has measured z-score not below 0.2. Thanks!
condition not met

Hello, I need to know if GCUUGCUAGAGUGAUCUCGTT against Adsl has measured z-score not below 0.2. Thanks!
condition not met

Hello, I need to know if GGCACAUGGAAUCUUUGAGTT against Edc3 has measured z-score not below 0.2. Thanks!
condition not met

Hello, I need to know if UACUACAACCGCACAGUGATT against Tmc6 has measured z-score not below 0.2. Thanks!
condition met

Hello, I need to know if GCAGUUGACCACAGAAAAUTT against BC061237 has measured z-score not below 0.2. Thanks!
condition not met

----------
- measurement-notes: Components of the Cytosolic LPS Sensing Pathway: Gene Identification via Genome-wide siRNA Screen;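 further: robust z of the log signal after scaling to non-targeting control siRNA wells of the plate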
- experimental-context: RAW264.7 macrophages, IL-1a HTRF, actives lie on both sides, screened at 100 nM (by protocol), cells primed 5 h with Pam3CSK4 first
About 3,700 (7%) of roughly 53,000 sequences were called active.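 Rule for the calls: active = gene knockdowns whose robust z-score for IL-1 alpha signal is at least 2 or at most -2, so actives lie on both sides; inactive = the rest.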 Only a selection was taken, and actives are over-represented in it overall.
Write down one outcome, taken from True (active), False (inactive)

Short answer needed: outcome of this test for GGACGACAACGACAUCAUGTT against Sfrp2 ?
False
